# procedure_details: activity coefficient (dimensionless); of the first substance listed, at infinite dilution; xn = mol fraction of the nth substance listed
# run_parameters: 368.15 K; Liquid; Chromatography; x1 = 0
metric_name: activity coefficient

# compound, activity coefficient
data = [
    ("C=Cc1ccccc1 [styrene] + CCCCn1cc[n+](C)c1.N#CN=C=[N-]", 2.78),
    ("CO [methanol] + CCCCn1cc[n+](C)c1.N#CN=C=[N-]", 0.46),
    ("CCCCCCCCCC [decane] + CCCCn1cc[n+](C)c1.N#CN=C=[N-]", 205),
    ("CCC(C)(C)OC [2-methoxy-2-methylbutane] + CCCCn1cc[n+](C)c1.N#CN=C=[N-]", 12.5),
    ("CCC[N+](=O)[O-] [1-nitropropane] + CCCCn1cc[n+](C)c1.N#CN=C=[N-]", 1.5),
]

A = CCCCCCCCC [nonane] + CCCCn1cc[n+](C)c1.N#CN=C=[N-]
B = C1=CCCCC1 [cyclohexene] + CCCCn1cc[n+](C)c1.N#CN=C=[N-]
C = CCCCCCCC [octane] + CCCCn1cc[n+](C)c1.N#CN=C=[N-]
D = CCC(C)O (centres undefined) [butan-2-ol] + CCCCn1cc[n+](C)c1.N#CN=C=[N-]
# ascending order, key=activity coefficient Form entry: labels listed in requested order.
D, B, C, A

* * *

# procedure_details: activity coefficient (dimensionless); of the first substance listed, at infinite dilution; xn = mol fraction of the nth substance listed
# run_parameters: 328.15 K; Liquid; Chromatography; x1 = 0
metric_name: activity coefficient

Recorded activity coefficient, per entry:
# compound, activity coefficient
records = [
    ("CCC(=O)CC [pentan-3-one] + CCCCn1cc[n+](C)c1.N#CN=C=[N-]", 2.16),
    ("C=C(C)c1ccccc1 [(1-methylethenyl)benzene] + CCCCn1cc[n+](C)c1.N#CN=C=[N-]", 3.53),
    ("C1CCOC1 [tetrahydrofuran] + CCCCn1cc[n+](C)c1.N#CN=C=[N-]", 1.63),
    ("CC(C)c1ccccc1 [isopropylbenzene] + CCCCn1cc[n+](C)c1.N#CN=C=[N-]", 7.52),
    ("C=CCCCC [hex-1-ene] + CCCCn1cc[n+](C)c1.N#CN=C=[N-]", 25.9),
    ("CC(C)O [propan-2-ol] + CCCCn1cc[n+](C)c1.N#CN=C=[N-]", 0.93),
    ("CC(C)=O [acetone] + CCCCn1cc[n+](C)c1.N#CN=C=[N-]", 1.05),
    ("CCCCCCCCC [nonane] + CCCCn1cc[n+](C)c1.N#CN=C=[N-]", 193),
    ("CCC(C)CC [3-methylpentane] + CCCCn1cc[n+](C)c1.N#CN=C=[N-]", 51.7),
    ("CCCCCCCC [octane] + CCCCn1cc[n+](C)c1.N#CN=C=[N-]", 129),
]

I = CCC(C)O (configuration not stated) [butan-2-ol] + CCCCn1cc[n+](C)c1.N#CN=C=[N-]
II = CCCCC [pentane] + CCCCn1cc[n+](C)c1.N#CN=C=[N-]
III = CCC(C)(C)OC [2-methoxy-2-methylbutane] + CCCCn1cc[n+](C)c1.N#CN=C=[N-]
IV = C=CCCCCCCCC [1-decene] + CCCCn1cc[n+](C)c1.N#CN=C=[N-]
# ascending order, key=activity coefficient Form entry: labels listed in requested order.
I, III, II, IV
(I: 1.14, III: 11.1, II: 40.1, IV: 128)

* * *

# procedure_details: activity coefficient (dimensionless); of the first substance listed, at infinite dilution; xn = mol fraction of the nth substance listed
# run_parameters: 368.15 K; Liquid; Chromatography; x1 = 0
metric_name: activity coefficient

# compound, number
rows = [
    ("CCC(=O)CC [pentan-3-one] + CCCCn1cc[n+](C)c1.N#CN=C=[N-]", 2.6),
    ("C#CCCCCCC [1-octyne] + CCCCn1cc[n+](C)c1.N#CN=C=[N-]", 14.8),
]

1 = c1ccccc1 [benzene] + CCCCn1cc[n+](C)c1.N#CN=C=[N-]
2 = C#CCCC [1-pentyne] + CCCCn1cc[n+](C)c1.N#CN=C=[N-]
3 = C1COCCO1 [1,4-dioxane] + CCCCn1cc[n+](C)c1.N#CN=C=[N-]
4 = CCOC(C)(C)C [2-ethoxy-2-methylpropane] + CCCCn1cc[n+](C)c1.N#CN=C=[N-]
# ascending order, key=activity coefficient Form entry: labels listed in requested order.
3, 1, 2, 4
(3: 1.43, 1: 2.28, 2: 4.84, 4: 19.7)

a = CCOC(C)=O [ethyl acetate] + CCCCn1cc[n+](C)c1.N#CN=C=[N-]
b = CCc1ccccc1 [ethylbenzene] + CCCCn1cc[n+](C)c1.N#CN=C=[N-]
Compare reported activity coefficient values for a and b . Which is lower? Reply with the label of the item you choose.
a
(a: 3.11, b: 5.55)

* * *

# procedure_details: activity coefficient (dimensionless); of the first substance listed, at infinite dilution; xn = mol fraction of the nth substance listed
# run_parameters: 338.15 K; Liquid; Chromatography; x1 = 0
metric_name: activity coefficient

Recorded activity coefficient, per entry:
# compound, activity coefficient
measured = [
    ("CC(C)CO [2-methyl-1-propanol] + CCCCn1cc[n+](C)c1.N#CN=C=[N-]", 1.09),
    ("CCc1ccccc1 [ethylbenzene] + CCCCn1cc[n+](C)c1.N#CN=C=[N-]", 5.07),
    ("C1CCCCCC1 [cycloheptane] + CCCCn1cc[n+](C)c1.N#CN=C=[N-]", 30.1),
    ("Cc1ccccc1C [1,2-dimethylbenzene] + CCCCn1cc[n+](C)c1.N#CN=C=[N-]", 4.12),
]

I = C=CCCCCCC [oct-1-ene] + CCCCn1cc[n+](C)c1.N#CN=C=[N-]
II = C1CCOC1 [tetrahydrofuran] + CCCCn1cc[n+](C)c1.N#CN=C=[N-]
III = C=CCCCCCCCC [1-decene] + CCCCn1cc[n+](C)c1.N#CN=C=[N-]
Rank the 3 compounds: largest activity coefficient first, smallest last. Form entry: labels listed in requested order.
III, I, II

* * *

# procedure_details: activity coefficient (dimensionless); of the first substance listed, at infinite dilution; xn = mol fraction of the nth substance listed
# run_parameters: 358.15 K; Liquid; Chromatography; x1 = 0
metric_name: activity coefficient

# compound, activity coefficient
data = [
    ("CCC(C)(C)C [2,2-dimethylbutane] + CCCCn1cc[n+](C)c1.N#CN=C=[N-]", 47.4),
]

1 = C=CCCCCCCCC [1-decene] + CCCCn1cc[n+](C)c1.N#CN=C=[N-]
2 = C1=CCCCC1 [cyclohexene] + CCCCn1cc[n+](C)c1.N#CN=C=[N-]
3 = C#CCCCC [1-hexyne] + CCCCn1cc[n+](C)c1.N#CN=C=[N-]
4 = CCCC(=O)OC [methyl butanoate] + CCCCn1cc[n+](C)c1.N#CN=C=[N-]
# ascending order, key=activity coefficient Form entry: labels listed in requested order.
4, 3, 2, 1

P = CCCC=O [butanal] + CCCCn1cc[n+](C)c1.N#CN=C=[N-]
Q = C#CCCC [1-pentyne] + CCCCn1cc[n+](C)c1.N#CN=C=[N-]
Of P and Q , whose reported activity coefficient is the larger number? Reply with the label of the item you choose.
Q

I = CCCO [propan-1-ol] + CCCCn1cc[n+](C)c1.N#CN=C=[N-]
II = C1CCCC1 [cyclopentane] + CCCCn1cc[n+](C)c1.N#CN=C=[N-]
Compare reported activity coefficient values for I and II . Which is lower? Reply with the label of the item you choose.
I

* * *

# procedure_details: activity coefficient (dimensionless); of the first substance listed, at infinite dilution; xn = mol fraction of the nth substance listed
# run_parameters: 318.15 K; Liquid; Chromatography; x1 = 0
metric_name: activity coefficient

Recorded activity coefficient, per entry:
# compound, number
rows = [
    ("O [water] + CCCCn1cc[n+](C)c1.N#CN=C=[N-]", 0.31),
    ("Cc1cccc(C)c1 [1,3-dimethylbenzene] + CCCCn1cc[n+](C)c1.N#CN=C=[N-]", 4.65),
]

1 = CO [methanol] + CCCCn1cc[n+](C)c1.N#CN=C=[N-]
2 = CCCC(C)=O [pentan-2-one] + CCCCn1cc[n+](C)c1.N#CN=C=[N-]
3 = CCCCO [butan-1-ol] + CCCCn1cc[n+](C)c1.N#CN=C=[N-]
4 = C=CCCCCCCCC [1-decene] + CCCCn1cc[n+](C)c1.N#CN=C=[N-]
5 = CCOC(C)(C)C [2-ethoxy-2-methylpropane] + CCCCn1cc[n+](C)c1.N#CN=C=[N-]
Rank the 5 compounds: largest activity coefficient first, smallest last. Form entry: labels listed in requested order.
4, 5, 2, 3, 1
(4: 134, 5: 18.1, 2: 2, 3: 1.1, 1: 0.399)
